MEASUREMENT_TARGET: α-Glucosidase
TEST_NAME: α-Glucosidase inhibitory activity assay (4-nitrophenyl α-glucopyranoside substrate, absorbance at 405 nm)
Type: biochemical, Saccharomyces cerevisiae
CONDITION_PARAMETERS: 0.26 U/mL enzyme, pH 6.8, 37°C; mean ± SEM, triplicate
Label True when IC50 < 0.4 mM; otherwise False.

Previously resolved entries follow.
CCCCC/C=C/c1c(O)cc(CC=C(C)C)c(O)c1C=O [Compound 18, tetrahydroauroglaucin] | True
C[C@@H]1O[C@@H](O[C@@H]2[C@@H](O)[C@H](OCCc3ccc(O)c(O)c3)O[C@H](COC(=O)/C=C/c3ccc(O)c(O)c3)[C@H]2O)[C@H](O)[C@H](O)[C@H]1O [Compound 8, isoacteoside] | False
CC1OC(Oc2c(-c3ccc(O)c(O)c3)oc3cc(O)cc(O)c3c2=O)C(O)C(O)C1O (stereo not shown) [Compound 12, quercetin-3-rhamnoside] | False

Is IC50 of `CCCCCc1cc2c(C=O)c(O)c(CC=C(C)C)cc2o1` strictly below 0.4 mM?
True

###

MEASUREMENT_TARGET: α-Glucosidase
TEST_NAME: α-Glucosidase inhibitory activity assay (4-nitrophenyl α-glucopyranoside substrate, absorbance at 405 nm)
Format: biochemical, Saccharomyces cerevisiae
CONDITION_PARAMETERS: 0.26 U/mL enzyme, pH 6.8, 37°C; mean ± SEM, triplicate
OBSERVED_PROPERTY: IC50 (mM)
I only need the number, in mM, no unit after it.

CC1(C(=O)O)CCCC2(C)c3c(C=O)c4c(c(O)c3CCC12)COC4=O (stereo not drawn) | 0.379

Identify IC50 associated with the molecule CC1=C(CCc2ccoc2)C2(C)CCCC(C)(CO)C2CC1 (stereo not drawn)
0.067

Identify IC50 associated with the molecule `CCCCCCCc1c(O)cc(CC=C(C)C)c(O)c1C=O`
0.229

Identify IC50 associated with the molecule CC1=C(CCc2ccoc2)C2(C)CCCC(C)(C)C2CC1 (stereo not drawn)
0.21

###

MEASUREMENT_TARGET: α-Glucosidase
TEST_NAME: α-Glucosidase inhibitory activity assay (4-nitrophenyl α-glucopyranoside substrate, absorbance at 405 nm)
Assay type: biochemical, Saccharomyces cerevisiae
CONDITION_PARAMETERS: 0.26 U/mL enzyme, pH 6.8, 37°C; mean ± SEM, triplicate
Label 1 (yes) when IC50 < 0.5 mM; otherwise 0 (no).

CC1(C(=O)O)CCCC2(C)c3cc4c(c(O)c3CCC12)COC4=O (centres unmarked) [Compound 2] | 0 (no)
C[C@@H]1O[C@@H](O[C@@H]2[C@@H](O)[C@H](OCCc3ccc(O)c(O)c3)O[C@H](CO)[C@H]2OC(=O)/C=C/c2ccc(O)c(O)c2)[C@H](O)[C@H](O)[C@H]1O [Compound 7, acteoside] | 0 (no)
CC1=C(CCc2ccoc2)C2(C)CCCC(C)(C(=O)O)C2CC1 (centres unmarked) [Compound 5, phlomisoic acid] | 1 (yes)
CCC/C=C/C=C/c1c(O)cc(CC=C(C)C)c(O)c1C=O [Compound 19, dihydroauroglaucin] | 1 (yes)

Is IC50 of O=c1cc(-c2ccc(O)c(O)c2)oc2cc(O)cc(O)c12 [Compound 11, luteolin] strictly below 0.5 mM?
1 (yes)
